tgt: UniProt:Q06187
measurement_description: BTK IC50 enzyme assay (microfluidic off-chip mobility shift kinase assay)
condition_context: incubated for 90 min. at 27 C; read-out: Time Dependent BTK Enzyme Assay IC50
IC50 by entry:

What the record says about COCCN(C)C/C=C/C(=O)N1CCC(CNc2ncnc(N)c2-c2ccc(Oc3ccccc3)cc2)CC1 [A11] : IC50 is > 1000 nM

What the record says about C=CC(=O)Nc1cccc(Oc2ncnc(N)c2-c2ccc(Oc3ccccc3)cc2)c1 [A242] : IC50 is < 100 nM

----------
tgt: full-length human BTK (Homo sapiens (Human))
measurement_description: BTK IC50 enzyme assay (microfluidic off-chip mobility shift kinase assay)
condition_context: incubated for 90 min. at 27 C; read-out: Time Dependent BTK Enzyme Assay IC50
measurement_kind: IC50

Reference set (5 entries):
{"compound": "C=CC(=O)N1CCC=C(c2cnccc2Oc2ccc(Oc3ccccc3)cc2)C1", "tgt": "full-length human BTK (Homo sapiens (Human))", "value_reported": "< 1000 nM"}
{"compound": "CC1=CC(C)=[N+]2C1=Cc1ccc(CCC(=O)N3CCN(C/C=C/C(=O)Nc4cccc(Oc5ncnc(N)c5-c5ccc(Oc6ccccc6)cc5)c4)CC3)n1[B-]2(F)F", "tgt": "full-length human BTK (Homo sapiens (Human))", "value_reported": "> 1000 nM"}
{"compound": "C=CC(=O)Nc1cccc(Oc2ncnc(N)c2-c2cnn(Cc3ccccc3C#N)c2)c1", "tgt": "full-length human BTK (Homo sapiens (Human))", "value_reported": "< 100 nM"}
{"compound": "C=CC(=O)Nc1cccc(Nc2ncncc2-c2ccc(Oc3ccccc3)cc2)n1", "tgt": "full-length human BTK (Homo sapiens (Human))", "value_reported": "< 100 nM"}
{"compound": "C=CC(=O)Nc1cccc(Oc2ncnc(N)c2-c2ccc(C(=O)N3CCCC3)cc2)c1", "tgt": "full-length human BTK (Homo sapiens (Human))", "value_reported": "< 1000 nM"}

Okay, now this compound:
What the record says about C=CC(=O)Nc1cccc(Oc2ncnc(N)c2-c2cc(F)c(OCc3ccccc3)cc2F)c1 : IC50 is < 100 nM

----------
tgt: UniProtKB Q06187
measurement_description: BTK IC50 enzyme assay (microfluidic off-chip mobility shift kinase assay)
condition_context: incubated for 90 min. at 27 C; read-out: Time Dependent BTK Enzyme Assay IC50
pIC50: −log10 of the molar value.
measurement_kind: pIC50

Reference set (3 entries):
{"compound": "C=CC(=O)Nc1cccc(Oc2ncnc(N)c2-c2cncc(OC)c2)c1", "value_reported": "> 6.00"}
{"compound": "CN(C)C/C=C/C(=O)Nc1ccc(Oc2ncnc(N)c2-c2ccc(Oc3ccccc3)cc2)cc1", "value_reported": "> 6.00"}
{"compound": "C=CC(=O)N1CCC(CN(C)c2ncnc(N)c2-c2ccc(Oc3ccccc3)cc2)CC1", "value_reported": "> 6.00"}

Okay, now this compound:
What the record says about CC#CC(=O)Nc1cccc(-c2cnccc2Oc2ccc(Oc3ccccc3)cc2)c1 : pIC50 is > 6.00

----------
tgt: BTK (Homo sapiens (Human))
Sequence (Q06187 whole entry): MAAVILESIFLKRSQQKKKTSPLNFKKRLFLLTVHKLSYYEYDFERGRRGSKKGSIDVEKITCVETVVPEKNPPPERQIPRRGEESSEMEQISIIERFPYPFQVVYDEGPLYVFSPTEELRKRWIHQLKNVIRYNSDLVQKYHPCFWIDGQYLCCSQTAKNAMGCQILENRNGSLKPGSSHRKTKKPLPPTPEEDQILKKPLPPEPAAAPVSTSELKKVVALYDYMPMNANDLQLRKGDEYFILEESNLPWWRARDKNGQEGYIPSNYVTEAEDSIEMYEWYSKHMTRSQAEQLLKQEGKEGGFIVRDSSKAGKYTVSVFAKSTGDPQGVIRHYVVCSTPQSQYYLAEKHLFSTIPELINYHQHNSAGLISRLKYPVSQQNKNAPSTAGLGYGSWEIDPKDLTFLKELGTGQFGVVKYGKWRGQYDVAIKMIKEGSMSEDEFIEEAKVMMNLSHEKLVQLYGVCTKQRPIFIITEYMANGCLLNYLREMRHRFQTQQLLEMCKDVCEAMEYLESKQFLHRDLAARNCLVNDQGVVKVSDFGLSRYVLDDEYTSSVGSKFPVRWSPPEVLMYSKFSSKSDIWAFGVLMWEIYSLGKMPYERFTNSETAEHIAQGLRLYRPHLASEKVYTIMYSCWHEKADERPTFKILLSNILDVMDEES
measurement_description: Time Dependent Human Whole Blood IC50 assay
Type: cell-based
measurement_kind: IC50

What the record says about C=CC(=O)N1C2CCC1CC(CNc1ncnc(N)c1-c1ccc(Oc3ccccc3)cc1)C2 (stereo not shown) [A48] : IC50 is > 1000 nM

----------
pIC50 by entry:
tgt: full-length human BTK (Homo sapiens (Human), UniProt Q06187)
measurement_description: BTK IC50 enzyme assay (microfluidic off-chip mobility shift kinase assay)
condition_context: incubated for 90 min. at 27 C; read-out: Time Dependent BTK Enzyme Assay IC50
pIC50: −log10 of the molar value.

Reference set (4 entries):
{"compound": "C/C=C\\C(=O)N1CCC(COc2ncnc(N)c2-c2ccc(Oc3ccccc3)cc2)CC1 [A43]", "value_reported": "> 6.00"}
{"compound": "C=CC(=O)Nc1cccc(-c2cnccc2Nc2ccc(Oc3ccccc3)cc2)c1 [A267]", "value_reported": "> 7.00"}
{"compound": "C=CC(=O)N1CCC(Nc2ncnc(N)c2-c2ccc(Oc3ccccc3)cc2)CC1 [A299]", "value_reported": "< 6.00"}
{"compound": "C=CC(=O)N1CCCC(Nc2ncnc(N)c2-c2ccc(OCc3ccccc3)cc2)C1 (centres unmarked) [A269]", "value_reported": "> 7.00"}

Okay, now this compound:
What the record says about CC#CC(=O)N1CCC(CNc2ncnc(N)c2-c2ccc(Oc3ccccc3)cc2)CC1 [A336] : pIC50 is > 7.00
